Please provide measured Emax for the entries that follow.
Target: Human TREM2 (Homo sapiens)
Construct: expressed in transfected cells
Sequence (Q9NZC2 19-230): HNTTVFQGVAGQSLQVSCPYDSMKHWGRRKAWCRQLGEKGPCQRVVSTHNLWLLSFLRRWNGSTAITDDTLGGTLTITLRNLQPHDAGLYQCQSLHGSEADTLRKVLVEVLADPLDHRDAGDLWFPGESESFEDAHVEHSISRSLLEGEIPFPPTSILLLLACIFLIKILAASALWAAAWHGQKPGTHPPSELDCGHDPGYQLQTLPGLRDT
Sequence (O43914 22-113 partner): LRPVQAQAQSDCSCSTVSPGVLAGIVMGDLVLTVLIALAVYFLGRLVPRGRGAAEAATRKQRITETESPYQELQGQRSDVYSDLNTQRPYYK
Assay: Human TREM2 activity: cellular phosphorylation of Syk (AlphaLISA SureFire Ultra p-SYK) in HEK293/DAP12+TREM2 stable cell line
Assay type: cell-based
Settings: HEK293; maximal response relative to reference agonist example 1B (remaining examples); read-out: Emax

Exam item: # lookup: Emax of Cc1cc([C@H]2CN(c3cc4c(=O)n(C)c(C)nc4c(-c4cc(F)c(F)cc4F)n3)CC(C)(C)O2)ccn1 (single isomer, unassigned) [Example 160B]
Marked response: < 75%

Exam item: Can you share its Emax? I mean this molecule: Cc1nc2c(nc(N3CCOC(c4cnn(C)c4)C3)nc2[C@H]2CC[C@@H](C)CC2)c(=O)n1C (stereo partly drawn) [Example 12a]
Marked response: 75 to 110%

Exam item: Dear colleague, I am looking for the recorded Emax of the following molecule: Cc1nc2c(-c3ccc(Cl)cc3F)nc(N3CCO[C@H](c4cnn(C5CC5)c4)C3)cc2c(=O)n1C (single isomer, unassigned) [Example 131A]
Marked response: 75 to 110%

Exam item: Given Cc1nc2c(-c3ccc(Cl)cc3F)nc(N3CCOC(C)(c4cnn(C)c4)C3)nc2c(=O)n1C (stereo not drawn) , state its recorded Emax.
Marked response: < 75%

Exam item: Give the measured Emax of Cc1nc2c(-c3cc(F)c(F)cc3F)nc(N3CCOC(c4cnn(C)c4)C3)nc2c(=O)n1C (stereo not drawn) .
Marked response: < 75%

Exam item: Entry under review: Cc1nc2c(-c3ccc(C(F)(F)F)nc3)nc(N3C[C@@H](C)O[C@@H](c4cnn(C5CC5)c4)C3)cc2c(=O)n1C (single isomer, unassigned) [Example 184B] . Reported Emax?
Marked response: < 75%

Exam item: Bench note: what Emax did Cc1cc([C@@H]2CN(c3nc(-c4ccc(F)cc4F)c4nc(C(F)(F)F)n(C)c(=O)c4n3)C[C@H](C)O2)ccn1 (single isomer, unassigned) [Example 191A] show?
Marked response: < 75%

Exam item: GET /values?readout=Emax&item= Cc1cc([C@H]2CN(c3cc4c(=O)n(C)c(C)nc4c(-c4ccc(C(F)(F)F)cc4F)n3)CC(C)(C)O2)ccn1 (single isomer, unassigned) [Example 163B]
Marked response: 75 to 110%

Exam item: Any idea what its Emax is? The molecule is Cn1c(C(F)(F)F)nc2c(-c3ccc(F)cc3F)nc(C3CCOC(c4cnn(C5CC5)c4)C3)c(F)c2c1=O (stereo not drawn)
Marked response: < 75%

Exam item: I'd like to know its Emax. The molecule in question is Cc1cc([C@@H]2CN(c3cc4c(=O)n(C)c(C)nc4c(-c4ccc(C(F)(F)F)cc4F)n3)CC(C)(C)O2)ccn1 (single isomer, unassigned) [Example 163A]
Marked response: < 75%

Exam item: What value of Emax has been reported for the following molecule? Cc1nc2c(-c3ccc(Cl)cc3F)nc(N3CCO[C@@H](c4cnn(C)c4)C3)cc2c(=O)n1C (single isomer, unassigned) [Example 125A]
Marked response: 75 to 110%

Exam item: Given the entry Cc1cc([C@@H]2CN(c3nc(-c4ccc(F)cc4F)c4nc(C)n(C)c(=O)c4n3)C[C@H](C)O2)ccn1 (single isomer, unassigned) [Example 175A] , report its measured Emax.
Marked response: 75 to 110%
